- Tested on: Phospho-p70S6K (T389)
- experimental-protocol: MSD assay, phospho-p70S6K (T389) in cell lysates
- Format: cell-based
- condition-info: PC3 cell line; read-out: MSD p70S6K
Property: pIC50; scope: individual molecules
Hey, just a heads up that pIC50 is the negative log base 10 of the concentration in molar.

Query string: Give the observed pIC50 of "Cc1cc(C(N)=O)ncc1-c1cnc2c(n1)N(C(C)C)C(=O)CN2" for Phospho-p70S6K (T389).
Result string: 6.77

Query string: Give the observed pIC50 of "Cc1cc(-c2nc[nH]n2)ncc1-c1cnc2c(n1)N(CC1CCOCC1)CC(=O)N2" for Phospho-p70S6K (T389).
Result string: 9.00

Query string: Give the observed pIC50 of "COCCN1C(=O)CNc2ncc(-c3ccc(-c4ncn[nH]4)nc3)nc21" for Phospho-p70S6K (T389).
Result string: 6.92

Query string: Give the observed pIC50 of "COCCN1C(=O)CNc2ncc(-c3ccc(-c4nnc[nH]4)nc3C)nc21" for Phospho-p70S6K (T389).
Result string: 7.51

Query string: Give the observed pIC50 of Cc1cc(-c2nc[nH]n2)c(F)cc1-c1cnc2c(n1)N(CC1CCC(O)CC1)C(=O)CN2 (stereo not shown) [C-142] for Phospho-p70S6K (T389).
Result string: 7.74

Query string: Give the observed pIC50 of COC1CCC(CN2CC(=O)Nc3ncc(-c4ccc(-c5ncn[nH]5)nc4)nc32)CC1 (stereo not shown) for Phospho-p70S6K (T389).
Result string: 8.00

Query string: Give the observed pIC50 of O=C1CNc2ncc(-c3ccc(-c4nc[nH]n4)nc3)nc2N1C1CCC(O)CC1 (stereo not shown) for Phospho-p70S6K (T389).
Result string: 7.15

Query string: Give the observed pIC50 of "CC(C)N1CC(=O)Nc2ncc(-c3ccc(-c4nc[nH]n4)nc3)nc21" for Phospho-p70S6K (T389).
Result string: 6.76

Query string: Give the observed pIC50 of COC1CCC(CN2CC(=O)Nc3ncc(-c4ccc(-c5nc[nH]n5)nc4)nc32)CC1 (stereo not shown) for Phospho-p70S6K (T389).
Result string: 7.44

Query string: Give the observed pIC50 of "CCN1C(=O)CNc2ncc(-c3ccc(-c4ncn[nH]4)nc3)nc21" for Phospho-p70S6K (T389).
Result string: 7.42

Query string: Give the observed pIC50 of "Nc1ncc(-c2cnc3c(n2)N(CCC2CCOCC2)C(=O)CN3)cn1" for Phospho-p70S6K (T389).
Result string: 6.52

Query string: Give the observed pIC50 of "CNc1ccc(-c2cnc3c(n2)N(CCC2CCOCC2)C(=O)CN3)cn1" for Phospho-p70S6K (T389).
Result string: 6.74
